Below, each of the molecules is paired with its reported melting point value.

[[record]]
molecule = "COc1ccc(C(=O)NC(=O)Nc2cc3c(cc2F)/C(=C/c2ccc[nH]2)C(=O)N3)cc1"
val = "290 to 295 °C"


Quick note, melting point for Cc1cc(C)c2cccc(OCc3c(Cl)ccc(S(=O)(=O)N4CCC[C@H]4C(=O)NCCCNC(=O)c4cccc(C=NN)c4)c3Cl)c2n1 landed at 116 to 120 °C

Given item COc1cccc2c1SCCC2=O , the value recorded as its melting point is 110 °C

The recorded melting point for entry Nc1nc2cc(Cl)c(Cl)cc2n1Cc1ccccc1 equals 245 to 246 °C

The molecule CC(C)Cn1nc(-c2ccccc2)cc(C(=O)O)c1=O showed melting point equal to 120 to 121 °C

Briefly, melting point measured for CC(C)(C)[N+]([O-])=Cc1cc([N+](=O)[O-])ccc1O : 172 °C

Given item O=C(O)C(=O)CC(=O)c1cccn1Cc1cccc(Cl)c1 , the value recorded as its melting point is 159 to 161 °C

response.value for CCCCNC(=O)C(O[Si](C)(C)C(C)(C)C)C(C)(C)C (stereo unspecified) (field: melting point) = 41 to 42 °C

// recorded melting point for C=CCNC(=O)C=Cc1cn(C)nc1[N+](=O)[O-] : 143 to 146 °C

Looking up O=c1[nH]c2cc(Cl)c(-n3cccc3)cc2cc1P(=O)(O)O , I found its melting point recorded as 195 to 200 °C

Quick note, melting point for CCCC1(CCC)CCC2(CC1)CC(=O)N(CCC#N)C2=O landed at 117 to 118 °C
